# test.protocol: Nuclear factor erythroid 2-related factor 2/antioxidant responsive element (Nrf2/ARE) small molecule agonists: luciferase reporter gene qHTS assay in human keratinocytes (AID 1919969); note: nearly all actives have a fitted effect of over 35% in size
# test.context: KeratinoSens HaCaT ARE-luciferase, luminescence, 24 h; series mostly up to 92.4 µM
Inconclusive results are not listed. Activity calls are given as the source filed them. Calls come from the whole dose curve.
Select the correct class. Options are yes (1) = active, no (0) = inactive and nothing else.

stdin: // param item: O=C(/C=C/c1ccccc1)NCCO ; yields the recorded call
stdout: no (0)

stdin: // param item: CCOc1ccc(NC(N)=O)cc1 ; yields the recorded call
stdout: no (0)

stdin: // param item: CC(S)C(C)S (stereo unspecified) ; yields the recorded call
stdout: no (0)

stdin: // param item: O=C1CCCCC1C1CCCCC1 (stereo unspecified) ; yields the recorded call
stdout: no (0)

stdin: // param item: COc1ccc(COC=O)cc1 ; yields the recorded call
stdout: no (0)

stdin: // param item: CCN(CC)c1ccc(C(=C2C=CC(=[N+](CC)CC)C=C2)c2cc(S(=O)(=O)O)ccc2S(=O)(=O)[O-])cc1 ; yields the recorded call
stdout: no (0)

stdin: // param item: CCCCCCOC(=O)CCCCCCCC(=O)OCCCCCC ; yields the recorded call
stdout: no (0)

stdin: // param item: CCOc1ccc2nc(N)sc2c1 ; yields the recorded call
stdout: no (0)

stdin: // param item: Cc1ccc(Nc2nccc(N(C)c3ccc4c(C)n(C)nc4c3)n2)cc1S(N)(=O)=O ; yields the recorded call
stdout: yes (1)

stdin: // param item: O=C1CCCCCN1SSN1CCCCCC1=O ; yields the recorded call
stdout: yes (1)

stdin: // param item: Nc1ccc(N)c2c1C(=O)c1ccccc1C2=O ; yields the recorded call
stdout: no (0)

stdin: // param item: CCC(=O)OCCC(C)CCC=C(C)C (stereo unspecified) ; yields the recorded call
stdout: no (0)

stdin: // param item: Nc1ccc(Oc2ccc(N)c(N)c2)cc1 ; yields the recorded call
stdout: yes (1)

stdin: // param item: CCCCCCCC/C=C\CCCCCCCC(=O)N(C)CC(=O)O ; yields the recorded call
stdout: yes (1)

stdin: // param item: CCCCCOC(=O)COc1cc(N2C(=O)C3=C(CCCC3)C2=O)c(F)cc1Cl ; yields the recorded call
stdout: yes (1)

stdin: // param item: O=C1CCCCCO1 ; yields the recorded call
stdout: no (0)

stdin: // param item: Cc1cccc2c1cc1ccc3cccc4ccc2c1c34 ; yields the recorded call
stdout: no (0)

stdin: // param item: Cc1c(F)c(N2CCNC(C)C2)cc2c1c(=O)c(C(=O)O)cn2C1CC1 (stereo unspecified) ; yields the recorded call
stdout: no (0)

stdin: // param item: CCN(CC)CCNC(=O)COc1ccc(OC)cc1 ; yields the recorded call
stdout: no (0)

stdin: // param item: CC1(C)O[C@@H]2C[C@H]3[C@@H]4CCC5=CC(=O)C=C[C@]5(C)[C@H]4[C@@H](O)C[C@]3(C)[C@]2(C(=O)CO)O1 ; yields the recorded call
stdout: no (0)

stdin: // param item: O=C(Nc1cccc(Cl)c1)OCC#CCCl ; yields the recorded call
stdout: yes (1)

stdin: // param item: Cn1cnc2c(=O)[nH]c(N)nc21 ; yields the recorded call
stdout: no (0)

stdin: // param item: C[C@@H]1C[C@H]2[C@@H]3CCC4=CC(=O)C=C[C@]4(C)[C@@]3(F)[C@@H](O)C[C@]2(C)[C@@]1(O)C(=O)COC(=O)c1ccncc1 ; yields the recorded call
stdout: no (0)

stdin: // param item: Nc1ccc2c3c(cccc13)-c1ccccc1-2 ; yields the recorded call
stdout: no (0)

stdin: // param item: Nc1ccc2ccccc2c1S(=O)(=O)O ; yields the recorded call
stdout: yes (1)

stdin: // param item: CCCCCCCCCCCCCCCC(=O)OCC ; yields the recorded call
stdout: no (0)

The reported numbers originate from PubChem BioAssay (Tox21).
